experiment: Toxicity liver stage against HepG2, at 10uM; assay type: cell-based; set-up: test concentration 10 uM, cell line HepG2-A16-CD81EGFP; settings: human, HepG2-A16-CD81EGFP cells; read-out: INHIBITION
assayEndpoint: cytotoxicity at 10 µM (%)
Your answer should be a plain number; it is taken to be in %.

# annotated cases, reported cytotoxicity at 10 µM shown
[[record]]
molecule = "CC(C)NC(=O)c1ccc(NC(=O)NC(C)c2ccccn2)cc1 (centres undefined)"
valueobserved = 9.44

[[record]]
molecule = "Cc1nc(CCCNC(=O)Nc2ccc(F)cc2F)n[nH]1"
valueobserved = -2.9

[[record]]
molecule = "Cc1cc(NC(=O)c2ccc(F)cc2F)n(C)n1"
valueobserved = -2.18


Which measured cytotoxicity at 10 µM value corresponds to `Cn1cnc(-c2ccc(F)cc2)c1NC(=O)CCNC(=O)C(C)(C)C` ? 3.84
